# Tested on: Bad S112 phosphorylation in H1299 cells overexpressing Pim1 (H1299Pim1)
# Protocol Details: Bad S112 phosphorylation inhibition assay (In Cell ELISA)
# Format: cell-based
# Details: Homo sapiens, NCI-H1299, semi-quantitative, read-out: EC50 BadP ELISA H1299 Pim1
pEC50: −log10 of the molar value.
Parameter Measured: pEC50

Sample answers from the record:
INSERT INTO measurements (compound, observed_result) VALUES
  ('CN1CCOc2c(N[C@H]3CC[C@H](O)CC3)nn3c(-c4cccc(OC(F)(F)F)c4)nnc3c21', '6.00 to 6.60'),
  ('CCN1CCOc2c1c(NCC1CCN(C)CC1)nn1c(-c3cccc(OC(F)(F)F)c3)nnc21', '> 6.60'),
  ('CC1CN(C)c2c(NCC3CCN(C)CC3)nn3c(-c4cccc(OC(F)(F)F)c4)nnc3c2O1 (stereo not shown)', '6.00 to 6.60');

Let us examine a further case.
Enquiry: Field: pEC50 (Bad S112 phosphorylation in H1299 cells overexpressing Pim1 (H1299Pim1)). Entry: `CN1CCOc2c1c(NCC13CCN(CC1)C3)nn1c(-c3cccc(OC(F)(F)F)c3)nnc21`
Return: 6.00 to 6.60

----------
# System: HTC116 cells (colon carcinoma)
# Protocol Details: MTT in vitro cell proliferation / combination assay, HTC116
# Assay type: cell-based
# Details: HTC116, example compound alone; read-out: Example EC50
Parameter Measured: EC50

Enquiry: Would you mind telling me what EC50 value was observed for `CN1CCOc2c1c(N1CCC3(CC1)CC(N)C3)nn1c(-c3cccc(OC(F)(F)F)c3)nnc21` ?
Return: 10 µM

----------
These molecules were tested on PIM-3 (Homo sapiens (Human), UniProt Q86V86); IC50 is the recorded read-out.

Sample answers from the record:
INSERT INTO results (molecule, observed_result) VALUES
  ('COc1ccc(-c2nnc3c4c(c(NCc5ccc(F)cc5)nn23)N(C)CCO4)cc1 [Example 81]', '100 to 1000 nM'),
  ('CC(C)NCC1CCN(c2nn3c(-c4cccc(OC(F)(F)F)c4)nnc3c3c2OCCN3C)CC1 [Example 86]', '100 to 1000 nM');

Let us examine a further case.
Enquiry: Would you mind telling me what IC50 value was observed for CN1CCOc2c1c(NCC1CC1)nn1c(-c3cccc(OC(F)(F)F)c3)nnc21 [Example 7] ?
Return: < 100 nM

----------
Field: pEC50. Provide a value for each of the compounds that follow.
# Tested on: Bad S112 phosphorylation in H1299 cells overexpressing Pim1 (H1299Pim1)
# Protocol Details: Bad S112 phosphorylation inhibition assay (In Cell ELISA)
# Type: cell-based
# Details: Homo sapiens, NCI-H1299, semi-quantitative, read-out: EC50 BadP ELISA H1299 Pim1
pEC50: −log10 of the molar value.

Sample answers from the record:
INSERT INTO measurements (structure_smiles_string, parameter_measured, observed_result) VALUES
  ('CN1CCC(CNc2nn3c(-c4cccc(C#N)c4)nnc3c3c2N(C)CCO3)CC1', 'pEC50', '5.00 to 6.00'),
  ('CN1CCOc2c(N3CCC(CN)CC3)nn3c(-c4cccc(OC(F)(F)F)c4)nnc3c21', 'pEC50', '5.00 to 6.00');

Value sought for every listed compound: pEC50.
1. CCN1CCC(CNc2nn3c(-c4cccc(OC(F)(F)F)c4)nnc3c3c2N(C)CCO3)CC1
2. CN1CCOc2c1c(NCc1ccc(F)cc1)nn1c(-c3cccc(OC(F)(F)F)c3)nnc21
3. CN1CCOc2c1c(NCC1CC3(CCNCC3)C1)nn1c(-c3cccc(OC(F)(F)F)c3)nnc21
4. FC(F)(F)Oc1cccc(-c2nnc3c4c(c(N5CCCCC5)nn23)OCCO4)c1

Return:
1. 6.00 to 6.60
2. 5.00 to 6.00
3. 6.00 to 6.60
4. 5.00 to 6.00

----------
# Test system: Mantle cell lymphoma cells
# Protocol Details: MTT in vitro cell proliferation / combination assay, mantle cell lymphoma (cell line not given)
# Type: cell-based
# Details: Mantle cell lymphoma (cell line cell empty), example compound alone; read-out: Example EC50
# Experimental: Proliferation assays (MTT) were performed as described in: • “Chemical interrogation of FOXO3a nuclear translocation identifies potent and selective inhibitors of phosphoinositide 3-kinases”, W. Link, J. Oyarzabal, B. G. Serelde, M. I. Albarran, O. Rabal, A. Cebria, P. Alfonso, J. Fominaya, O. Renner, S. Peregrina, D. Soilan, P. A. Ceballos, A. I. Hernandez, M. Lorenzo, P. Pevarello, T. G. Granda, G. Kurz, A. Carnero, J. R. Bischoff, J. Biol. Chem. 284 (2009) 28392-28400. Combination Assay […]
Parameter Measured: EC50
Could you give the number and then its unit, please?

Enquiry: Would you mind telling me what EC50 value was observed for `CN1CCC(CNc2nn3c(-c4cccc(OC(F)(F)F)c4)nnc3c3c2N(C)CCO3)CC1` ?
Return: 10 µM

----------
# Tested on: Bad S112 phosphorylation in H1299 cells overexpressing Pim1 (H1299Pim1)
# Protocol Details: Bad S112 phosphorylation inhibition assay (In Cell ELISA)
# Format: cell-based
# Details: Homo sapiens, NCI-H1299, semi-quantitative, read-out: EC50 BadP ELISA H1299 Pim1
pEC50: −log10 of the molar value.
Parameter Measured: pEC50

INSERT INTO measurements (structure_smiles_string, parameter_measured, observed_result) VALUES
  ('CN1CCOc2c1c(N1CC3(CCCNC3)C1)nn1c(-c3cccc(OC(F)(F)F)c3)nnc21', 'pEC50', '> 6.60'),
  ('CN1CCOc2c1c(NCCN1CCOCC1)nn1c(-c3cccc(OC(F)(F)F)c3)nnc21', 'pEC50', '> 6.60'),
  ('CN1CCOc2c(N3CCC4(CC3)CC(N)C4)nn3c(-c4cccc(OC(F)(F)F)c4)nnc3c21', 'pEC50', '5.00 to 6.00');

Let us examine a further case.
Enquiry: Would you mind telling me what pEC50 value was observed for `CN1CCOc2c1c(NCC1CC1)nn1c(-c3cccc(OC(F)(F)F)c3)nnc21` ?
Return: 5.00 to 6.00

----------
# Assay Target: PIM-1 (Homo sapiens (Human))
# Protocol Details: PIM-1 biochemical assay (ADP Hunter)
# Details: read-out: PIM1 IC50; semi-quantitative
Parameter Measured: IC50

Sample answers from the record:
INSERT INTO assay_data (molecule, observed_result) VALUES
  ('CN1CCOc2c1c(NCCCO)nn1c(-c3cccc(OC(F)(F)F)c3)nnc21', '< 100 nM'),
  ('CN1CCC(Nc2nn3c(-c4cccc(OC(F)(F)F)c4)nnc3c3c2N(C)CCO3)CC1', '< 100 nM');

Value sought for every listed molecule: IC50.
1. CN1CCOc2c1c(N1CC3(CCCNC3)C1)nn1c(-c3cccc(OC(F)(F)F)c3)nnc21
2. CN1CCOc2c1c(N(C)C1CCOCC1)nn1c(-c3cccc(OC(F)(F)F)c3)nnc21
3. CN1CCC(CNc2nn3c(-c4cccc(OC(F)(F)F)c4)nnc3c3c2N(C)CCO3)CC1

Return:
< 100 nM
< 100 nM
< 100 nM

----------
Field: EC50. Provide a value for each of the molecules that follow.
# Test system: Bad S112 phosphorylation in H1299 cells overexpressing Pim1 (H1299Pim1)
# Protocol Details: Bad S112 phosphorylation inhibition assay (In Cell ELISA)
# Format: cell-based
# Details: Homo sapiens, NCI-H1299, semi-quantitative, read-out: EC50 BadP ELISA H1299 Pim1

Sample answers from the record:
INSERT INTO measurements (molecule, parameter_measured, observed_result) VALUES
  ('CN1CCC(CNc2nn3c(-c4cccc(OC(F)(F)F)c4)nnc3c3c2OCCN3C)CC1 [Example 17]', 'EC50', '1 to 10 µM'),
  ('CN1CCOc2c(NCC3CCNCC3)nn3c(-c4cccc(OC(F)(F)F)c4)nnc3c21 [Example 58]', 'EC50', '1 to 10 µM'),
  ('CN1CCOc2c1c(N1CCC(N(C)C)CC1)nn1c(-c3cccc(OC(F)(F)F)c3)nnc21 [Example 5]', 'EC50', '0.25 to 1 µM'),
  ('CN1CCOc2c1c(NC1CC3(CCNCC3)C1)nn1c(-c3cccc(OC(F)(F)F)c3)nnc21 [Example 49]', 'EC50', '0.25 to 1 µM');

Let us examine a further case.
Enquiry: Would you mind telling me what EC50 value was observed for CN1CCC(CNc2nn3c(-c4ccc(F)cc4)nnc3c3c2N(C)CCO3)CC1 [Example 100] ?
Return: 1 to 10 µM

----------
Field: IC50. Provide a value for each of the compounds that follow.
# Assay Target: PIM-1 (Homo sapiens (Human), UniProt P11309)
# Sequence (P11309 whole entry): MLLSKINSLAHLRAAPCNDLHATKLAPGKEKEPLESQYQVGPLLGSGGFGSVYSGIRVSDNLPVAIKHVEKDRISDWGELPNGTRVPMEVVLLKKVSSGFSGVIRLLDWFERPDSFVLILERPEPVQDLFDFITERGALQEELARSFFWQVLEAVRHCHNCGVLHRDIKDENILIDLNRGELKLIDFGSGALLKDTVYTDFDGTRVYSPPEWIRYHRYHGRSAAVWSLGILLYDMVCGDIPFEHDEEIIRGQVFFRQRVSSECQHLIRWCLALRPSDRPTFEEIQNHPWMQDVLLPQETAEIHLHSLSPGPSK
# Protocol Details: PIM-1 biochemical assay (ADP Hunter)
# Details: read-out: PIM1 IC50; semi-quantitative

Sample answers from the record:
INSERT INTO assay_data (compound, observed_result) VALUES
  ('CN1CCC(CNc2nn3c(-c4cccc(N(C)C)c4)nnc3c3c2N(C)CCO3)CC1', '< 100 nM'),
  ('CCN1CCOc2c1c(NCC1CC1)nn1c(-c3cccc(OC(F)(F)F)c3)nnc21', '< 100 nM'),
  ('CN1CCC(CNc2nn3c(-c4cccc(OC(F)(F)F)c4)nnc3c3c2N(C)C(C)(C)CO3)CC1', '< 100 nM');

Value sought for every listed compound: IC50.
1. CC(=O)N1CCN(CCNc2nn3c(-c4cccc(OC(F)(F)F)c4)nnc3c3c2OCCN3C)CC1
2. CN1CCOc2c(NC3CC4(CCNCC4)C3)nn3c(-c4cccc(OC(F)(F)F)c4)nnc3c21
3. COc1ccc(-c2nnc3c4c(c(N5CCC(CN)CC5)nn23)N(C)CCO4)cc1
4. CN1CCOc2c1c(N[C@H]1CC[C@H](N)CC1)nn1c(-c3cccc(OC(F)(F)F)c3)nnc21
5. CN1CCOc2c1c(N1CCC3(CC1)CC(N)C3)nn1c(-c3cccc(OC(F)(F)F)c3)nnc21
6. CNC1CCN(c2nn3c(-c4cccc(OC(F)(F)F)c4)nnc3c3c2N(C)CCO3)CC1
7. CN1CCC(CNc2nn3c(-c4cccc(OC(F)(F)F)c4)nnc3c3c2OCCO3)CC1
8. CN1CCOc2c1c(NCC1CCNCC1)nn1c(-c3cccc(OC(F)(F)F)c3)nnc21

Return:
1. > 1000 nM
2. < 100 nM
3. 100 to 1000 nM
4. < 100 nM
5. < 100 nM
6. < 100 nM
7. < 100 nM
8. < 100 nM

Value sought for every listed compound: IC50.
1. FC(F)(F)Oc1cccc(-c2nnc3c4c(c(NCC5CC5)nn23)OCCO4)c1
2. COc1ccc(-c2nnc3c4c(c(NCc5ccc(F)cc5)nn23)OCCN4C)cc1
3. CN1CCOc2c1c(N[C@H]1CC[C@H](O)CC1)nn1c(-c3cccc(OC(F)(F)F)c3)nnc21
4. CN1CCOc2c1c(NCC1CC[N+](C)([O-])CC1)nn1c(-c3cccc(OC(F)(F)F)c3)nnc21 (stereo not drawn)
5. CN1CCOc2c1c(NC1CC3(CCNCC3)C1)nn1c(-c3cccc(OC(F)(F)F)c3)nnc21
6. CN1CCOc2c(N3CCC4(CC3)CC(N)C4)nn3c(-c4cccc(OC(F)(F)F)c4)nnc3c21

Return:
["< 100 nM", "> 1000 nM", "< 100 nM", "< 100 nM", "< 100 nM", "< 100 nM"]

Value sought for every listed compound: IC50.
1. COc1ccc(-c2nnc3c4c(c(N5CCC(CNC(C)=O)CC5)nn23)N(C)CCO4)cc1
2. CN(CC1CCNCC1)c1nn2c(-c3cccc(OC(F)(F)F)c3)nnc2c2c1N(C)CCO2
3. CN1CCC(CNc2nn3c(-c4cccc(C(F)(F)F)c4)nnc3c3c2N(C)CCO3)CC1
4. CCN1CCOc2c1c(NCC1CCN(C)CC1)nn1c(-c3cccc(OC(F)(F)F)c3)nnc21
5. CN1CCOc2c1c(N1CCCC3(CCCN3C)CC1)nn1c(-c3cccc(OC(F)(F)F)c3)nnc21 (stereo not drawn)
6. CN1CCOc2c1c(NCC1CCC(O)CC1)nn1c(-c3cccc(OC(F)(F)F)c3)nnc21 (stereo not drawn)
7. CN1CCC(CN(C)c2nn3c(-c4cccc(OC(F)(F)F)c4)nnc3c3c2OCCN3C)CC1

Return:
["> 1000 nM", "< 100 nM", "< 100 nM", "< 100 nM", "< 100 nM", "< 100 nM", "> 1000 nM"]
